Collected Kd values appear next to each entry.
# target_of_assay: human CA-IX (Homo sapiens, UniProt Q16790)
# Construct: purchased Acro CA9-H82E3
# test_details: Surface Plasmon Resonance (SPR) binding kinetics to recombinant human CA-IX (Biacore 8K, single-cycle kinetics, 1:1 binding model)
# study_conditions: Chelated Metal: Lu-175; SPR, 25° C., pH 7.4; read-out: CAIX KD

The compound CC(CCCC(=O)N1CCC(C(=O)O)(C(=O)NCC(=O)N2CCN(C(=O)CN3CCN(CC(=O)O)CCN(CC(=O)O)CCN(CC(=O)O)CC3)C[C@@H]2C(=O)N[C@@H](Cn2cc(C34CC(C(=O)Nc5nnc(S(N)(=O)=O)s5)(C3)C4)nn2)C(=O)O)CC1)(c1ccc(O)cc1)c1ccc(O)cc1.[Lu+3] showed Kd equal to < 1 nM

What the record says about NS(=O)(=O)c1nnc(NC(=O)C23CC(c4cn(CCNC(=O)[C@@H]5CN(C(=O)CN6CCN(CC(=O)O)CCN(CC(=O)O)CCN(CC(=O)O)CC6)CCN5C(=O)C[C@H](Nc5ncc(C(=O)NCCc6ccc(C7CC7)cc6)cn5)C(=O)O)nn4)(C2)C3)s1.[Lu+3] : Kd is 1 to 2.5 nM

Consider CC(CCC(=O)N[C@@H](CC(=O)N[C@@H](CC(=O)N1CCN(C(=O)[C@H](CCC(=O)NCCOCCOCCOCCOCCOCCOCCOCCOCCC(=O)N[C@@H](CCCCNC(=O)CCCc2ccc(Cl)cc2)C(=O)O)NC(=O)CN2CCN(CC(=O)O)CCN(CC(=O)O)CCN(CC(=O)O)CC2)C[C@H]1C(=O)NCCn1cc(C23CC(C(=O)Nc4nnc(S(N)(=O)=O)s4)(C2)C3)nn1)C(=O)O)C(=O)O)(c1ccc(O)cc1)c1ccc(O)cc1.[Lu+3] (racemic) . Its measured Kd is 2.5 to 10 nM

Data point: Cc1cc(C2CC2)ccc1C(=O)N[C@@H](CC(=O)N[C@@H](CC(=O)N1CCN(C(=O)CN2CCN(CC(=O)O)CCN(CC(=O)O)CCN(CC(=O)O)CC2)C[C@H]1C(=O)NCCn1cc(C23CC(C(=O)Nc4nnc(S(N)(=O)=O)s4)(C2)C3)nn1)C(=O)O)C(=O)O.[Lu+3] ; Kd = < 1 nM

So, NS(=O)(=O)c1nnc(NC(=O)C23CC(c4cn(CCNC(=O)[C@H]5CNCCN5C(=O)[C@H](CCCCNC(=O)CN5CCN(CC(=O)O)CCN(CC(=O)O)CCN(CC(=O)O)CC5)NC(=O)CC[C@H](NC(=O)c5n[nH]c6ccccc56)C(=O)O)nn4)(C2)C3)s1.[Lu+3] ? Its Kd was 2.5 to 10 nM

----------
# target_of_assay: human CA-XII (Homo sapiens)
# Construct: purchased Creative BioMart CA12-261H
# test_details: Surface Plasmon Resonance (SPR) binding kinetics to recombinant human CA-XII (Biacore 8K, single-cycle kinetics, 1:1 binding model)
# study_conditions: Chelated Metal: Lu-175, 25° C., pH 7.4, read-out: CAXII KD
pKd: −log10 of the molar value.
Catalogue of pKd readings, one per entry.

Take a look at these entries with their results.
INSERT INTO assay_data (compound, quantity_name, result) VALUES
  ('NS(=O)(=O)c1nnc(NC(=O)C23CC(c4cn(CCNC(=O)[C@@H]5CN(C(=O)CN6CCN(CC(=O)O)CCN(CC(=O)O)CCN(CC(=O)O)CC6)CCN5C(=O)CNC(=O)C5(C(=O)O)CCN(C(=O)CC6CC7(CCC7)C6)CC5)nn4)(C2)C3)s1.[Lu+3]', 'pKd', '8.00 to 8.60'),
  ('N[C@@H](CC(=O)N[C@@H](CCC(=O)N1CCN(C(=O)CN2CCN(CC(=O)O)CCN(CC(=O)O)CCN(CC(=O)O)CC2)C[C@H]1C(=O)NCCn1cc(C23CCC(C(=O)Nc4nnc(S(N)(=O)=O)s4)(CC2)CC3)nn1)C(=O)O)C(=O)O.[Lu+3]', 'pKd', '8.60 to 9.00'),
  ('NS(=O)(=O)c1nnc(NC(=O)C23CC(c4cn(CCNC(=O)[C@@H]5CN(C(=O)CN6CCN(CC(=O)O)CCN(CC(=O)O)CCN(CC(=O)O)CC6)CCN5C(=O)C[C@H](NC(=O)C[C@H](NC(=O)CCC5CCCCCC5)C(=O)O)C(=O)O)nn4)(C2)C3)s1.[Lu+3]', 'pKd', '8.60 to 9.00');

Lab note: CC(CCC(=O)N[C@@H](CC(=O)N[C@@H](CC(=O)N1CCN(C(=O)CN2CCN(CC(=O)O)CCN(CC(=O)O)CCN(CC(=O)O)CC2)C[C@@H]1C(=O)NCCn1cc(C23CC(C(=O)Nc4nnc(S(N)(=O)=O)s4)(C2)C3)nn1)C(=O)O)C(=O)O)(c1ccc(O)cc1)c1ccc(O)cc1.[Lu+3] gave pKd of < 8.00

The compound identified as CC(CCCC(=O)N1CCC(C(N)=O)(C(=O)NCC(=O)N2CCN(C(=O)CC[C@H](C(=O)O)N3CCN(CC(=O)O)CCN(CC(=O)O)CCN(CC(=O)O)CC3)C[C@@H]2C(=O)NCCn2cc(C34CC(C(=O)Nc5nnc(S(N)(=O)=O)s5)(C3)C4)nn2)CC1)(c1ccc(O)cc1)c1ccc(O)cc1.[Lu+3] registered its pKd at < 8.00

pKd reported for this compound CC(CCC(=O)N[C@@H](CC(=O)N[C@@H](CC(=O)N1CCN(C(=O)[C@H](CCC(=O)NCCOCCOCCOCCOCCOCCOCCOCCOCCC(=O)N[C@@H](CCCCNC(=O)CCCc2ccc(Cl)cc2)C(=O)O)NC(=O)CN2CCN(CC(=O)O)CCN(CC(=O)O)CCN(CC(=O)O)CC2)C[C@H]1C(=O)NCCn1cc(C23CC(C(=O)Nc4nnc(S(N)(=O)=O)s4)(C2)C3)nn1)C(=O)O)C(=O)O)(c1ccc(O)cc1)c1ccc(O)cc1.[Lu+3] (racemic) : < 8.00

The compound identified as CC1(C)CN(C(=O)CCCC(C)(c2ccc(O)cc2)c2ccc(O)cc2)[C@H](C(=O)N[C@@H](CC(=O)N2CCN(C(=O)CN3CCN(CC(=O)O)CCN(CC(=O)O)CCN(CC(=O)O)CC3)C[C@@H]2C(=O)NCCn2cc(C34CC(C(=O)Nc5nnc(S(N)(=O)=O)s5)(C3)C4)nn2)C(=O)O)CO1.[Lu+3] registered its pKd at < 8.00

----------
Each entry below carries its recorded Kd.
# target_of_assay: human CA-XII (Homo sapiens, UniProt O43570)
# Construct: purchased Creative BioMart CA12-261H
# Sequence (O43570 25-354): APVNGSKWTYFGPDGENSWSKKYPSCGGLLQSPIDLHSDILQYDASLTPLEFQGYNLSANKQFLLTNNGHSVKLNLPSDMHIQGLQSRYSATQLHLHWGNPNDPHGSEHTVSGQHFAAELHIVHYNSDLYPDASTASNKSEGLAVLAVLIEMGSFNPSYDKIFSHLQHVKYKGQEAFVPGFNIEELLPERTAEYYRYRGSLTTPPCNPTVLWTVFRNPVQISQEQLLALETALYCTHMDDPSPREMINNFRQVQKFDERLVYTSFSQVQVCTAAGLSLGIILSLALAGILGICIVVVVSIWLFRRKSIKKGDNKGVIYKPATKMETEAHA
# test_details: Surface Plasmon Resonance (SPR) binding kinetics to recombinant human CA-XII (Biacore 8K, single-cycle kinetics, 1:1 binding model)
# study_conditions: Chelated Metal: Lu-175, 25° C., pH 7.4, read-out: CAXII KD

Sample answers from the record:
INSERT INTO measurements (compound_structure_string, quantity_name, result) VALUES
  ('CC(CCC(=O)N[C@H](CC(=O)N[C@H](CC(=O)N1CCN(C(=O)CN2CCN(CC(=O)O)CCN(CC(=O)O)CCN(CC(=O)O)CC2)C[C@H]1C(=O)NCCn1cc(C23CC(C(=O)Nc4nnc(S(N)(=O)=O)s4)(C2)C3)nn1)C(=O)O)C(=O)O)(c1ccc(O)cc1)c1ccc(O)cc1.[Lu+3]', 'Kd', '> 10 nM'),
  ('NS(=O)(=O)c1nnc(NC(=O)C23CCC(c4cn(CCNC(=O)[C@@H]5CN(C(=O)CN6CCN(CC(=O)O)CCN(CC(=O)O)CCN(CC(=O)O)CC6)CCN5C(=O)CNC(=O)C5(C(=O)O)CCN(C(=O)CCCc6ccc(O)cc6)CC5)nn4)(CC2)CC3)s1.[Lu+3]', 'Kd', '1 to 2.5 nM'),
  ('CC(CC(=O)N1CCC(C(N)=O)(C(=O)NCC(=O)N[C@@H](CCCCn2cc(CCCC(=O)Nc3nnc(S(N)(=O)=O)s3)nn2)C(=O)NCCOCCOCCNC(=O)CN2CCN(CC(=O)O)CCN(CC(=O)O)CCN(CC(=O)O)CC2)CC1)(c1ccc(O)cc1)c1ccc(O)cc1.[Lu+3]', 'Kd', '> 10 nM');

Please examine the following record next.
compound Cc1c(C(=O)N[C@@H](CC(=O)N[C@@H](CC(=O)N2CCN(C(=O)CN3CCN(CC(=O)O)CCN(CC(=O)O)CCN(CC(=O)O)CC3)C[C@H]2C(=O)NCCn2cc(C34CC(C(=O)Nc5nnc(S(N)(=O)=O)s5)(C3)C4)nn2)C(=O)O)C(=O)O)n[nH]c1C(F)(F)F.[Lu+3] , Kd observed: < 1 nM

----------
# target_of_assay: human CA-XII (Homo sapiens)
# Construct: purchased Creative BioMart CA12-261H
# test_details: Surface Plasmon Resonance (SPR) binding kinetics to recombinant human CA-XII (Biacore 8K, single-cycle kinetics, 1:1 binding model)
# study_conditions: read-out: CAXII KD, Chelated Metal: Lu-175, 25° C., pH 7.4
pKd: −log10 of the molar value.
Quick reference for pKd among some compounds

INSERT INTO assay_data (compound_structure_string, quantity_name, result) VALUES
  ('NS(=O)(=O)c1nnc(NC(=O)C23CCC(c4cn(CCNC(=O)[C@@H]5CN(C(=O)CN6CCN(CC(=O)O)CCN(CC(=O)O)CCN(CC(=O)O)CC6)CCN5C(=O)CC[C@H](NC(=O)C[C@H](NCc5ccccc5)C(=O)O)C(=O)O)nn4)(CC2)CC3)s1.[Lu+3]', 'pKd', '> 9.00');

Lab note: compound CC(CCC(=O)N[C@@H](CC(=O)N[C@@H](Cc1cn([C@@H](CCCCn2cc(C34CCC(C(=O)Nc5nnc(S(N)(=O)=O)s5)(CC3)CC4)nn2)C(=O)NCCOCCOCCNC(=O)CN2CCN(CC(=O)O)CCN(CC(=O)O)CCN(CC(=O)O)CC2)nn1)C(=O)O)C(=O)O)(c1ccc(O)cc1)c1ccc(O)cc1.[Lu+3] tested on human CA-XII (Homo sapiens); recorded pKd was > 9.00
